// reported inhibition per item
target.or.test.system: Beta-secretase 1 (Homo sapiens)
Sequence (P56817 whole entry): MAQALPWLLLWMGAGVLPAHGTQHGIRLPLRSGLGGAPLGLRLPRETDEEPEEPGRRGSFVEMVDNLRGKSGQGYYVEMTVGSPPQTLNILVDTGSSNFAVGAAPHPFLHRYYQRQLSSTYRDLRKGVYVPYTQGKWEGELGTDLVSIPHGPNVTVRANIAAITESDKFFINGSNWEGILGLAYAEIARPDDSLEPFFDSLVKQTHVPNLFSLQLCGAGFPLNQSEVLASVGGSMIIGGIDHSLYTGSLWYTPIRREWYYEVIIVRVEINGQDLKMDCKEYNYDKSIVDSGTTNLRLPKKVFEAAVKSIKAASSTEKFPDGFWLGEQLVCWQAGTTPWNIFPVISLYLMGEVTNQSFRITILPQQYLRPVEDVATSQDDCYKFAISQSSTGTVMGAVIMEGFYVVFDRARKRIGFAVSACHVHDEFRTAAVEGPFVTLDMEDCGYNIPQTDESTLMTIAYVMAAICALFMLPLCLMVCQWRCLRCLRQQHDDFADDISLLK
assay.text: Inhibition of human recombinant BACE1 at 2 uM
Give the value in % but do not write % after it.

The following molecules have reported results that may help.
CC(C)C[C@H](NC(=O)[C@@H](NC(=O)[C@@H](N)CNC(=O)c1ccoc1)C(C)C)C(=O)N[C@@H](Cc1ccccc1)[C@@H](O)C(=O)Nc1cccc(C(=O)O)c1
82
CC(C)C[C@H](NC(=O)[C@@H](NC(=O)[C@@H](N)CNC(=O)c1cccc(O)c1)C(C)C)C(=O)N[C@@H](Cc1ccccc1)[C@@H](O)C(=O)Nc1cccc(C(=O)O)c1
91

Could you now look at the following molecule, please?
Ask: What measured inhibition goes with CC(C)C[C@H](NC(=O)[C@@H](NC(=O)[C@@H](N)CNC(=O)c1nn[nH]n1)C(C)C)C(=O)N[C@@H](Cc1ccccc1)[C@@H](O)C(=O)Nc1cccc(-c2nn[nH]n2)c1 ?
Result: 100
